- SUBJECT_OF_TEST: human uPAR (uPAR-Fc) (Homo sapiens, UniProt Q03405)
- Construct: comprising amino acids Leu23-Arg303 according to UniProt entry Q03405.1; purchased R&D Systems 10378-UK-100
- Sequence (Q03405 23-303): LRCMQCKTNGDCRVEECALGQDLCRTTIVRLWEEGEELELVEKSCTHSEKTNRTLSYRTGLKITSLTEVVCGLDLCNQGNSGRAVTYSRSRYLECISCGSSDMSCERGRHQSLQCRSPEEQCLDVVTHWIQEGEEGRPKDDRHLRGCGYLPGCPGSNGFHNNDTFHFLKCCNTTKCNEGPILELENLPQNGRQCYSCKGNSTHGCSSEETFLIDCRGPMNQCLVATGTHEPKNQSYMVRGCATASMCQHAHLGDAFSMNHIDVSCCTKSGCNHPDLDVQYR
- METHOD_NOTES: Surface plasmon resonance (SPR) assay, single cycle kinetics
- Format: binding
- STUDY_CONDITIONS: pKD category for uPAR SPR activity assay; uPAR-Fc on Protein A-Chip, single cycle kinetics, 25°C; read-out: pKD CAT (converted)
Where a SMILES comes first, the peptide text is derived from it. Bridges are numbered along the chain shown (N, C = ends). [ ]: non-standard residue; d: D form. The star is where a group is joined. DOTA = O=C(O)CN1CCN(CC(=O)O)CCN(CC(=O)*)CCN(CC(=O)O)CC1; Hyp = O=C(O)[C@@H]1C[C@@H](O)CN1; NMeF = CN[C@@H](Cc1ccccc1)C(=O)O; Pentanoyl(4-Me) = CC(C)CCC(=O)*; Cit = NC(=O)NCCC[C@H](N)C(=O)O; Nle = CCCC[C@H](N)C(=O)O; Nva = CCC[C@H](N)C(=O)O; Abu = CC[C@H](N)C(=O)O; Pentanoyl = CCCCC(=O)*; Aib = CC(C)(N)C(=O)O; NEtG = CCNCC(=O)O
Items are presented alongside their recorded Kd.

CCCC[C@@H]1NC(=O)[C@H](CCCNC(=N)N)NC(=O)[C@@H](NC(=O)[C@H](CC(C)C)NC(=O)[C@H](CC(=O)O)NC(C)=O)CSSC[C@@H](C(N)=O)NC(=O)[C@H](CC(C)C)NC(=O)[C@@H](CC(C)C)NC(=O)[C@H](C)NC(=O)[C@@H]2CCCN2C(=O)[C@H](Cc2ccccc2)NC(=O)[C@H](Cc2ccc(O)cc2)NC1=O [UPAR-420] (Ac-DLCR[Nle]YFPA[dL]LC-NH2; disulfide 3-12) yielded Kd of 10 to 100 nM

For this molecule ( CC[C@H](C)[C@@H]1NC(=O)C(C)(C)NC(=O)[C@@H]2CCCN2C(=O)[C@H](Cc2ccccc2)NC(=O)[C@H](Cc2ccc(O)cc2)NC(=O)[C@H](CCCCNC(=O)CN2CCN(CC(=O)O)CCN(CC(=O)O)CCN(CC(=O)O)CC2)NC(=O)[C@H](CCCNC(N)=O)NC(=O)[C@@H](NC(=O)CCC(C)C)CSSC[C@@H](C(N)=O)NC(=O)[C@H](CC(C)C)NC1=O [UPAR-452] ({Pentanoyl(4-Me)}-C[Cit]K(DOTA)YFP[Aib]ILC-NH2; disulfide 1-10) ), measured Kd is < 1.58 nM

Reported Kd of CC[C@@H]1NC(=O)[C@H]([C@@H](C)CC)NC(=O)[C@@H](C)NC(=O)[C@@H]2CCCN2C(=O)[C@H](Cc2ccccc2)NC(=O)[C@H](Cc2ccc(O)cc2)NC(=O)[C@H](CCC(N)=O)NC(=O)[C@H](CCCNC(N)=O)NC(=O)[C@@H](NC(=O)CCC(C)C)CSSC[C@@H](C(N)=O)NC1=O [UPAR-451] ({Pentanoyl(4-Me)}-C[Cit]QYFP[dA]I[Abu]C-NH2; disulfide 1-10) : 1.58 to 10 nM

Entry CCNCC(=O)N[C@H]1CSSC[C@@H](C(N)=O)NC(=O)[C@H](CC(C)C)NC(=O)[C@H]([C@@H](C)CC)NC(=O)[C@@H](C)NC(=O)[C@@H]2CCCN2C(=O)[C@H](Cc2ccccc2)NC(=O)[C@H](Cc2ccc(O)cc2)NC(=O)[C@H](CCC(N)=O)NC(=O)[C@H](CCCNC(N)=O)NC1=O [UPAR-462] (H-[NEtG]C[Cit]QYFP[dA]ILC-NH2; disulfide 2-11) ; Kd = 10 to 100 nM

For CCCCC(=O)N[C@H]1CSSC[C@@H](C(N)=O)NC(=O)[C@H](CCC)NC(=O)[C@H]([C@@H](C)CC)NC(=O)[C@@H]2C[C@@H](O)CN2C(=O)[C@@H]2CCCN2C(=O)[C@H](Cc2ccccc2)N(C)C(=O)[C@H](Cc2ccc(O)cc2)NC(=O)[C@H](CCCCNC(=O)CN2CCN(CC(=O)O)CCN(CC(=O)O)CCN(CC(=O)O)CC2)NC(=O)[C@H](CCCNC(N)=O)NC1=O [UPAR-398] (Pentanoyl-C[Cit]K(DOTA)Y[NMeF]P[Hyp]I[Nva]C-NH2; disulfide 1-10) the molecule record lists Kd as > 100 nM
